- testedOn: CDK1/CyclinB (Homo sapiens (Human))
- Sequence (P06493 whole entry): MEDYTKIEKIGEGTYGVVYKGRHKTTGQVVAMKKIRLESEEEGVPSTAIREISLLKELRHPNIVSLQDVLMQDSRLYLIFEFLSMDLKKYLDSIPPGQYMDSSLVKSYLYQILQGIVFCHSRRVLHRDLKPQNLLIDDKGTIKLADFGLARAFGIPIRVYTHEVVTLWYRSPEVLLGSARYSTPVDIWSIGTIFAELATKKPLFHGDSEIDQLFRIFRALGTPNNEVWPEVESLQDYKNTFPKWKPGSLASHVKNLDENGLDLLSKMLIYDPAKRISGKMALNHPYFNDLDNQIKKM
- Sequence (P14635 whole entry partner): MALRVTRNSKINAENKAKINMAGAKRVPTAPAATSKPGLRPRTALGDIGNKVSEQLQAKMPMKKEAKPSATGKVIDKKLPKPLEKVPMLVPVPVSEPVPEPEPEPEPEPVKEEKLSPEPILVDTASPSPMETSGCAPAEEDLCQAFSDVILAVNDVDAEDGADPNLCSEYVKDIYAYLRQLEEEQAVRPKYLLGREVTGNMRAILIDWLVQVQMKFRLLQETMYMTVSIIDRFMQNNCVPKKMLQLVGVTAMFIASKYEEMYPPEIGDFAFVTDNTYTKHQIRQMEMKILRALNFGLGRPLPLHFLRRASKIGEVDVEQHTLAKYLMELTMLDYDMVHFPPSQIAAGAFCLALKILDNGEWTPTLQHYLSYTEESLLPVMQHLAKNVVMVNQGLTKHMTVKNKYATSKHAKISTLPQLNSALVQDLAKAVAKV
- method: CDK1/CyclinB kinase inhibitory activity (Caliper mobility shift)
- settings: read-out: CDK1/Cyclin B1 IC50
pIC50: −log10 of the molar value.
Recorded pIC50 values for a group of molecules are listed next.

Answered examples (2):
# molecule, testedOn, pIC50
measured = [
    ("Cn1cc(S(=O)(=O)N2CCC(Nc3ncc(C#N)c(OC4CC5(CCC5)C4)n3)CC2)cn1", "CDK1/CyclinB (Homo sapiens (Human))", "7.00 to 8.00"),
    ("[2H]C([2H])([2H])NS(=O)(=O)c1ccc(Nc2ncc(CC)c(OC3COCC3(C)O)n2)cc1 (single isomer, unassigned) [Example 150b]", "CDK1/CyclinB (Homo sapiens (Human))", "≤ 6.00"),
]

**Query** Could you share what pIC50 was measured for `CNS(=O)(=O)N1CCC(Nc2ncc(C(F)(F)F)c(OC3CCCCCC3)n2)CC1` , tested on CDK1/CyclinB (Homo sapiens (Human))?
**Result** 7.00 to 8.00

**Query** Under CDK1/CyclinB (Homo sapiens (Human)): pIC50 value of CC1(O)CCCC1Oc1nc(Nc2ccc(S(N)(=O)=O)cc2)ncc1C1CC1 (single isomer, unassigned) [Example 154a] ?
**Result** > 8.00

**Query** Report pIC50 for CS(=O)(=O)N1CCC(Nc2ncc(Br)c(OC3CCCCCC3O)n2)CC1 (single isomer, unassigned) [Example 145b] tested on CDK1/CyclinB (Homo sapiens (Human)).
**Result** 7.00 to 8.00

**Query** Kindly state the measured pIC50 obtained for `CNS(=O)(=O)c1ccc(Nc2ncc(C#N)c(N3CCCCC3)n2)cc1` with CDK1/CyclinB (Homo sapiens (Human)).
**Result** 7.00 to 8.00

**Query** Please state recorded pIC50 (tested on CDK1/CyclinB (Homo sapiens (Human))) of `N#Cc1cnc(Nc2ccc(S(N)(=O)=O)cc2)nc1-c1cccc(O)c1`
**Result** 7.00 to 8.00

* * *

Entries and their IC50
- testedOn: CDK9/CyclinT1 (Homo sapiens (Human))
- Sequence (P50750 whole entry): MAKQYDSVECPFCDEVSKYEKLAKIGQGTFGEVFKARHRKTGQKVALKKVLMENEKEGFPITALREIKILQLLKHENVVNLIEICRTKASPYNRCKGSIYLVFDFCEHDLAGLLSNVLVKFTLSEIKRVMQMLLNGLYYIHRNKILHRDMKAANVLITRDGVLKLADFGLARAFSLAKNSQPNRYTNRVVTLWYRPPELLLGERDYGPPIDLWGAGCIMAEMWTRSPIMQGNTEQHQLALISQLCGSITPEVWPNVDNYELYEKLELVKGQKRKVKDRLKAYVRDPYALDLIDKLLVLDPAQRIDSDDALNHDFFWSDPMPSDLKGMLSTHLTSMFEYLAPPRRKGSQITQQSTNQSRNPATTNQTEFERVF
- Sequence (O60563 whole entry partner): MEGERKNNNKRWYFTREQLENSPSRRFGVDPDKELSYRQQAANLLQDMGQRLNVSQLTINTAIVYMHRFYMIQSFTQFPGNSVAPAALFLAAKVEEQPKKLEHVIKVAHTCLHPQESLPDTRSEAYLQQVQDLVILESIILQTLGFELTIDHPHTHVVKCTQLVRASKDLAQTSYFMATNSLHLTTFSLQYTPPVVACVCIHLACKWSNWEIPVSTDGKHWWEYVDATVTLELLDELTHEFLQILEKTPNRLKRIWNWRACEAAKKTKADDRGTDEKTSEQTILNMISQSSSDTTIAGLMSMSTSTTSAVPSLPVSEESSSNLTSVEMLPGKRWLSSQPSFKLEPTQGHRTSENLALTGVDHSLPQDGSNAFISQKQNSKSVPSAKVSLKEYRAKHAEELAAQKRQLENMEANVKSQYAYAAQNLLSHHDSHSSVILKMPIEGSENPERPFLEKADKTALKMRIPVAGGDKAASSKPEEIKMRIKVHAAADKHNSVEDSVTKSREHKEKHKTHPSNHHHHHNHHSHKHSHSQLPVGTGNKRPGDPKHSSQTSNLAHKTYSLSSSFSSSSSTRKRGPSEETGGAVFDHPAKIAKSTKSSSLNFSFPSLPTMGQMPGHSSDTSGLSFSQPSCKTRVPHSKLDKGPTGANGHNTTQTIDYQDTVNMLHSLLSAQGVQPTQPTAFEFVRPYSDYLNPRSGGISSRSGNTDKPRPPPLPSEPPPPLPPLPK
- method: CDK9/CyclinT1 kinase inhibitory activity (Caliper mobility shift)
- settings: read-out: CDK9/Cyclin T1 IC50

# molecule, IC50
data = [
    ("[2H]C([2H])([2H])NS(=O)(=O)c1ccc(Nc2ncc(C(F)(F)F)c(O[C@H]3CCOC[C@H]3O)n2)cc1 (single isomer, unassigned) [Example 100a]", "0.1 to 1 µM"),
    ("Cc1cnc(Nc2ccc(S(N)(=O)=O)cc2)nc1O[C@@H]1CCC[C@@H]1O (single isomer, unassigned) [Example 132a]", "0.1 to 1 µM"),
    ("C[C@@H]1CCCN(c2nc(Nc3ccc(S(N)(=O)=O)cc3)ncc2C#N)C1", "0.1 to 1 µM"),
    ("CC1(O)CCCC1Oc1nc(NC2CCN(S(=O)(=O)CC(F)(F)F)CC2)ncc1C#N (single isomer, unassigned) [Example 43a]", "0.1 to 1 µM"),
]

**Query** Please tell me: IC50 of NS(=O)(=O)c1ccc(Nc2ncc(C(F)(F)F)c(OC3CCOCC3O)n2)cc1 (single isomer, unassigned) [Example 114a] , system CDK9/CyclinT1 (Homo sapiens (Human))?
**Result** 0.01 to 0.1 µM

**Query** Request body: readout IC50, system CDK9/CyclinT1 (Homo sapiens (Human)), query `C[C@@H]1C[C@H](O)CCN1c1nc(Nc2ccc(S(N)(=O)=O)cc2)ncc1C#N` . Return the value.
**Result** 0.01 to 0.1 µM

**Query** Under CDK9/CyclinT1 (Homo sapiens (Human)): IC50 value of `N#Cc1cnc(Nc2ccc(S(N)(=O)=O)cc2)nc1-c1ccc(O)cc1` ?
**Result** 0.1 to 1 µM

**Query** What is its IC50 for CDK9/CyclinT1 (Homo sapiens (Human))? Entry: CCc1cnc(Nc2ccc(S(N)(=O)=O)cc2)nc1O[C@@H]1CCC[C@@H]1O (single isomer, unassigned) [Example 133b]
**Result** 0.1 to 1 µM

**Query** Give CDK9/CyclinT1 (Homo sapiens (Human)) IC50 for Cc1cnc(Nc2ccc(S(=O)(=O)NC(C)C)cc2)nc1OC1CCCC1O (single isomer, unassigned) [Example 147b]
**Result** 0.1 to 1 µM

**Query** Quick check: IC50 on CDK9/CyclinT1 (Homo sapiens (Human)), item `Cn1cc(S(=O)(=O)N2CCC(Nc3ncc(C#N)c(OCC4(C)CCCC4)n3)CC2)cn1` ?
**Result** 0.1 to 1 µM

**Query** Lab request: please report IC50 under test system CDK9/CyclinT1 (Homo sapiens (Human)) for CS(=O)(=O)N1CCC(Nc2ncc(Br)c(OC3CCCCCC3O)n2)CC1 (single isomer, unassigned) [Example 145a]
**Result** ≥ 1 µM

**Query** Form field: IC50 recorded for NS(=O)(=O)N1CCC(Nc2ncc(C(F)(F)F)c(OC3CCCCCC3O)n2)CC1 (single isomer, unassigned) [Example 122a] with CDK9/CyclinT1 (Homo sapiens (Human)) (enter value)
**Result** 0.1 to 1 µM

**Query** Query for CDK9/CyclinT1 (Homo sapiens (Human)): what IC50 does the record show for CC1(O)COCCC1Oc1nc(NC2CCN(S(C)(=O)=O)CC2)ncc1C(F)(F)F (single isomer, unassigned) [Example 124b] ?
**Result** ≥ 1 µM

**Query** What is its IC50 for CDK9/CyclinT1 (Homo sapiens (Human))? Entry: [2H]C([2H])([2H])NS(=O)(=O)c1ccc(Nc2ncc(Cl)c(OC3COCC3(C)O)n2)cc1 (single isomer, unassigned) [Example 140b]
**Result** ≥ 1 µM
